- assayed target: SIX1-Q177R homeodomain (human, UniProt Q15475 108-198, Q177R)
- Sequence: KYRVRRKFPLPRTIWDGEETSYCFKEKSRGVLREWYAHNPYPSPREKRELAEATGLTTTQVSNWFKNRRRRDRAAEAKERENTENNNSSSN
- assay protocol: universal protein binding microarray; Universal all-10-mer PBM (8x60K, AMADID 030236), 300 nM GST-tagged protein, Alexa Fluor 488 anti-GST; buffer, salt, pH and temperature not stated (as in Berger); high values mean tight binding
- setup conditions: protein: ivt; tags: N-terminal GST; dsDNA, one strand shown
The full ranking holds about 33,000 sequences; the median of “e-score” is about -0.05, and the highest 2% start at about 0.38. Only a selection was taken, and the highest values are over-represented in it overall.
measure: binding signal
Give the number first and the unit second.

Entry CGTGTTAG : reported binding signal = ? 0.38 E-score

Query: binding signal; subject: ATTGCGTG 0.183 E-score

Would you kindly share the measured binding signal for AACCCCGC ? 0.194 E-score

For the sequence shown here, GCACCACC , give the reported binding signal. 0.261 E-score

# get_value(readout='binding signal', item= GCACCACA ) 0.154 E-score

Record request: binding signal value, item ACACCACC 0.481 E-score

# get_value(readout='binding signal', item= ATACCACC ) 0.25 E-score

Requested field: binding signal. Item: CACCTTCA 0.241 E-score

Recorded binding signal of ACACCACG , please. 0.477 E-score

Would you kindly share the measured binding signal for ACACCACT ? 0.483 E-score

Which binding signal is reported for this sequence? GGTGTTCA 0.461 E-score

These data points were gathered from paper PMC10668032.
